Test system: Botrytis cinerea
assay.info: Synergistic Growth Inhibition Assay (MIC and FIC index, 96-well, resazurin)
Format: cell-based
study.conditions: Botrytis cinerea, 48 h, Table 59; Compound B alone; 48 hours incubation; read-out: MIC (B)
test.readout: MIC (µg/mL)

molecule="CCC(C)CCC(=O)O (centres unmarked) [4-Methylhexanoic acid]" assayed_target="Botrytis cinerea" test_readout=MIC quantitative_result=78.1
molecule="CCCCC(O)C(=O)O (centres unmarked) [2-hydroxyhexanoic acid]" assayed_target="Botrytis cinerea" test_readout=MIC quantitative_result=1250
molecule="CCC(O)C(=O)O (centres unmarked) [2-Hydroxybutyric acid]" assayed_target="Botrytis cinerea" test_readout=MIC quantitative_result=2500
molecule="CCCC(C)CC(=O)O (centres unmarked) [3-Methylhexanoic acid]" assayed_target="Botrytis cinerea" test_readout=MIC quantitative_result=125
molecule="CCCCCCCC(O)CC(=O)O (centres unmarked) [3-Hydroxydecanoic acid, 3-hydroxydecanoic acid]" assayed_target="Botrytis cinerea" test_readout=MIC quantitative_result=125

P: CCCCCCC(C)C(=O)O (centres unmarked) [2-Methyloctanoic acid]
Q: CCCC(O)CC(=O)O (centres unmarked) [3-Hydroxyhexanoic acid, 3-hydroxyhexanoic acid]
Data request: # min-compare on MIC between P and Q State your choice using its label.
Data returned: P
(P: 78.1 µg/mL, Q: 2500 µg/mL)

P: CCCCC(CC)C(=O)O (centres unmarked) [2-Ethylhexanoic acid]
Q: CC(C)CC(=O)O [3-Methylbutyric acid]
Data request: Please state the entry with greater MIC among P and Q . Your answer should be the label attached to the chosen record.
Data returned: Q
(Q: 312 µg/mL, P: 156 µg/mL)

1: CCCCCCCCC(C)C(=O)O (centres unmarked) [2-Methyldecanoic acid]
2: CCC(CC)(CC)C(=O)O [2,2-Diethylbutanoic acid]
Data request: Select one: 1 or 2 . Criterion: greater recorded MIC. Respond with the label that goes with your answer.
Data returned: 2
(2: 250 µg/mL, 1: 125 µg/mL)
